# Assayed system: GRK2 (Homo sapiens, UniProt P25098)
# Construct: purchased SignalChem A14-10G
# Sequence (P25098 1-689): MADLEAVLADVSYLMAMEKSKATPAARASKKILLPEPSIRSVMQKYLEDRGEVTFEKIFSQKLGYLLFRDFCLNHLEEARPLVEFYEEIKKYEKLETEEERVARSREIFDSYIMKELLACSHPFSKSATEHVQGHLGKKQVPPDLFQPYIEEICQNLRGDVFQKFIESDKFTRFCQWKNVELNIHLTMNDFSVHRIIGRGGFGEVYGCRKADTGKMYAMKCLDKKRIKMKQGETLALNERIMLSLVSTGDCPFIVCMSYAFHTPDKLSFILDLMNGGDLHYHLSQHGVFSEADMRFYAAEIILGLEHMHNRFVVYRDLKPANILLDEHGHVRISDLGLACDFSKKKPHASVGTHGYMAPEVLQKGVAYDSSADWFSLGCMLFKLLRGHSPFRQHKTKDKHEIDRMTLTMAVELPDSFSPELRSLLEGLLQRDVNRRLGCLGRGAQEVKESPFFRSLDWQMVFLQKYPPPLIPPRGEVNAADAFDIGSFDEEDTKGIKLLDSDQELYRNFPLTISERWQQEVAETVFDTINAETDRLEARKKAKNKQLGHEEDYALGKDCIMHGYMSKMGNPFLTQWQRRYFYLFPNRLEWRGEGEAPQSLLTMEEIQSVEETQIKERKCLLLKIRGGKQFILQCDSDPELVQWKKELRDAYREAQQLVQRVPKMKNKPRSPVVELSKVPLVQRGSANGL
# Assay: ADPGlo GRK2 Inhibition Assay (Example 8)
# Type: biochemical
# Test context: 7.5 nM GRK2, 10 μM ATP, ADP-Glo; read-out: GRK2 IC50 (nM) (Example 8)
IC50 values for the molecules below.

Recorded results for 3 molecules are shown here.
Molecule	IC50
Cn1c(CNc2cccc(C(=O)NCc3cccnc3C(F)(F)F)c2)nnc1-c1ccncn1	36 nM
Cc1cccc(C(CO)NC(=O)c2cccc(NCc3nnc(-c4ccncn4)n3C)c2)c1 (stereo not shown)	1.1 nM
COc1ccc(CNC(=O)c2cccc(NCc3nnc(-c4ccncn4)n3C)c2)c(F)c1	19 nM

Prompt: Provide the documented IC50 with GRK2 (Homo sapiens, UniProt P25098) as the system for Cn1c(CNc2cccc(C(=O)NCc3cccc4cccnc34)c2)nnc1-c1ccncn1
Response: 61 nM

---

# Assayed system: GRK2 (Homo sapiens)
# Construct: purchased SignalChem A14-10G
# Assay: ADPGlo GRK2 Inhibition Assay (Example 8)
# Format: biochemical
# Test context: Enzyme Assay A, ADPGlo (Example 8); read-out: A: Enzymatic GRK2: IC50 (nM) (Example 8)
Label 1 when IC50 is strictly below 30 nM; at or above that, label 0.

Field: example entries. Status: answers known.
Compound	Assayed system	Label class
O=C(NCc1cn[nH]c1C(F)F)c1cccc(NCc2nnc(-c3ccncc3)[nH]2)c1	GRK2 (Homo sapiens)	1
O=C(NCc1cnccn1)c1cccc(NCc2nnc(-c3ccncc3)[nH]2)c1	GRK2 (Homo sapiens)	1
Cc1cnc(CNC(=O)c2cccc(NCc3nnc(-c4ccncn4)n3C)c2)c(C)c1	GRK2 (Homo sapiens)	1
COc1ccc2c(c1)[C@@H](NC(=O)c1cccc(NCc3nnc(-c4ccncn4)n3C)c1)CCO2	GRK2 (Homo sapiens)	0

Prompt: Hi there! Is IC50 for CCS(=O)(=O)c1ccc(CNC(=O)c2cccc(NCc3nnc(-c4ccncn4)n3C)c2)cc1 [drawing 618] below 30 nM, do you know?
Response: 1

Prompt: Hi there! Is IC50 for COc1ccc(F)cc1CNC(=O)c1cccc(NCc2nnc(-c3ccncn3)n2C)c1 below 30 nM, do you know?
Response: 1

Prompt: Hi there! Is IC50 for CC(NC(=O)c1cccc(NCc2nnc(-c3ccncn3)n2C)c1)c1ccn(C)n1 (stereo not shown) below 30 nM, do you know?
Response: 1

Prompt: Hi there! Is IC50 for Cn1c(CNc2cccc(C(=O)NCc3cnccc3C(F)(F)F)c2)nnc1-c1ccncn1 below 30 nM, do you know?
Response: 0

Prompt: Hi there! Is IC50 for COc1cccc([C@H](C)NC(=O)c2cccc(NCc3nnc(-c4ccncc4)n3C)c2)c1 below 30 nM, do you know?
Response: 0

Prompt: Hi there! Is IC50 for Cc1nc(C)c(CNC(=O)c2cccc(NCc3nnc(-c4ccncc4)[nH]3)c2)nc1C below 30 nM, do you know?
Response: 1

Prompt: Hi there! Is IC50 for Cc1ccncc1C(C)NC(=O)c1cccc(NCc2nnc(-c3ccncn3)n2C)c1 (stereo not shown) below 30 nM, do you know?
Response: 0

Prompt: Hi there! Is IC50 for Cn1c(CNc2cccc(C(=O)N[C@@H]3COCc4ccccc43)c2)nnc1-c1ccncc1 below 30 nM, do you know?
Response: 0

Prompt: Hi there! Is IC50 for Cn1c(CNc2cccc(C(=O)NCc3cnn(-c4ccccc4)n3)c2)nnc1-c1ccncn1 [drawing 616] below 30 nM, do you know?
Response: 1

Prompt: Hi there! Is IC50 for Cn1c(CNc2cccc(C(=O)NCc3cccnc3)c2)nnc1-c1ccncn1 below 30 nM, do you know?
Response: 0

Prompt: Hi there! Is IC50 for Cn1c(CNc2cccc(C(=O)NCc3cccc4c3OCCO4)c2)nnc1-c1ccncn1 below 30 nM, do you know?
Response: 1

Prompt: Hi there! Is IC50 for COc1ccc2c(c1)[C@H](NC(=O)c1cccc(NCc3nnc(-c4ccncn4)n3C)c1)CCO2 below 30 nM, do you know?
Response: 1

Prompt: Hi there! Is IC50 for O=C(NCc1nccc(C(F)F)n1)c1cccc(NCc2nnc(-c3ccncc3)[nH]2)c1 below 30 nM, do you know?
Response: 1

Prompt: Hi there! Is IC50 for Cn1c(CNc2cccc(C(=O)N[C@H]3CCOc4c(Cl)cccc43)c2)nnc1-c1ccncc1 below 30 nM, do you know?
Response: 0

Prompt: Hi there! Is IC50 for Cn1c(CNc2cccc(C(=O)NCc3ccc(C[S+](C)[O-])cc3)c2)nnc1-c1ccncn1 (stereo not shown) below 30 nM, do you know?
Response: 0
